assayed target: T1, APC542-AA
T1 chain: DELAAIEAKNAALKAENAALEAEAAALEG
method: two-hybrid library CCmax;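 also: natural log of median RNA to DNA barcode read ratio; higher means stronger binding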
condition notes: mean of both orientations
So basically: interaction score at -2 or higher? That is 1. Lower than -2? That is -1.

Qu. interaction score >= -2 for DKAAALKAELAANEAELAANEAKLAAIKG [APC3881-AA] ?
Ans. 1

Qu. interaction score >= -2 for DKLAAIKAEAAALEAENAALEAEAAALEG [APC1242-AA] ?
Ans. -1

Qu. interaction score >= -2 for DENAALEAKAAALKAKAAALKAELAAEEG [APC4336-AA] ?
Ans. -1

Qu. interaction score >= -2 for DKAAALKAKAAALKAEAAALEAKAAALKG [APC3323-AA] ?
Ans. 1

Qu. interaction score >= -2 for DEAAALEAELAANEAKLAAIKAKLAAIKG [APC2811-AA] ?
Ans. 1

Qu. interaction score >= -2 for DKNAALKAELAAIEAELAAIEAKLAANKG [APC5009-AA] ?
Ans. 1

Qu. interaction score >= -2 for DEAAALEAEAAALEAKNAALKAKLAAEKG [APC2257-AA] ?
Ans. 1

Qu. interaction score >= -2 for DENAALEAKLAAIKAELAAIEAELAAIEG [APC4100-AA] ?
Ans. 1
